So I've got a bunch of molecules here, and I need their T/C values.
Tested on: L1210 leukemia ip in BDF1 mice, survival T/C
Test: NCI In Vivo Anticancer Drug Screen. Data for tumor model L1210 Leukemia (intraperitoneal) in B6D2F1 (BDF1) mice
Settings: endpoint: mean survival time; dose: 200.0 mg/kg/injection; schedule: Q01DX001 (ip); vehicle: carboxymethylcellulose (CMC); higher = longer survival
Inconclusive results and toxic doses are left out.

Problem: Provide one value: measured T/C of O=c1oc2c([N+](=O)[O-])cc([N+](=O)[O-])cc2c2ccccc12
Result: 100 % of control

Problem: Provide one value: measured T/C of CS(=O)(=O)Oc1ccc(Cl)c2ccccc12
Result: 101 % of control

Problem: Provide one value: measured T/C of Nc1[nH]c(=O)nc2nc(I)[nH]c12
Result: 100 % of control

Problem: Provide one value: measured T/C of CC(=O)Nc1cccc2c1Cc1cc([N+](=O)[O-])ccc1-2
Result: 92 % of control

Problem: Provide one value: measured T/C of CNC1CCCCC1
Result: 106 % of control

Problem: Provide one value: measured T/C of CC1(O)CCCCCC1
Result: 94 % of control

Problem: Provide one value: measured T/C of CCOc1ncnc2c1ncn2-c1cccc(C)c1
Result: 101 % of control

Problem: Provide one value: measured T/C of CC1Cc2c(n[nH]c2CC2CC(=O)NC(=O)C2)C(C)C1 (stereo unspecified)
Result: 97 % of control

Problem: Provide one value: measured T/C of CCCCC(=O)N1CC(C)OC(C)C1 (stereo unspecified)
Result: 102 % of control

Problem: Provide one value: measured T/C of CCS(=O)(=O)c1ccc(NC(=O)OCc2ccccc2)cc1
Result: 94 % of control

Problem: Provide one value: measured T/C of COC(=O)Cc1cccc(=O)c(O)c1C(=O)OC
Result: 104 % of control

Problem: Provide one value: measured T/C of Cc1ccc(S(=O)(=O)OC2CCCC3CC(=O)CCC32C)cc1 (stereo unspecified)
Result: 105 % of control

Problem: Provide one value: measured T/C of COc1cc(C=Nc2cc(Cl)cc(Cl)c2)ccc1N(CCCl)CCCl
Result: 123 % of control

Problem: Provide one value: measured T/C of O=[N+]([O-])c1ccc(O)c(C=Nc2cnc3ccccc3c2)c1
Result: 93 % of control

Problem: Provide one value: measured T/C of O=S1(=O)CC(Cl)C1
Result: 97 % of control

Problem: Provide one value: measured T/C of COC1C(CO)OC(n2cnc3c(=O)[nH]c(N)nc32)C1O (stereo unspecified)
Result: 104 % of control

Problem: Provide one value: measured T/C of CS(=O)(=O)OCCF
Result: 97 % of control

Problem: Provide one value: measured T/C of CC(=O)O/C=C\c1ccccc1
Result: 107 % of control

Problem: Provide one value: measured T/C of O=C1CC(Cc2n[nH]c3c2CCC3)CC(=O)N1
Result: 97 % of control

Problem: Provide one value: measured T/C of S=C(NP(=S)(NC(=S)OCCN1CC1)NC(=S)OCCN1CC1)OCCN1CC1
Result: 96 % of control

Problem: Provide one value: measured T/C of N#Cc1ccc(CCCCCCc2ccc(C#N)cc2)cc1
Result: 110 % of control
